- Measured Target: FYN (Homo sapiens (Human))
- Sequence (P06241 whole entry): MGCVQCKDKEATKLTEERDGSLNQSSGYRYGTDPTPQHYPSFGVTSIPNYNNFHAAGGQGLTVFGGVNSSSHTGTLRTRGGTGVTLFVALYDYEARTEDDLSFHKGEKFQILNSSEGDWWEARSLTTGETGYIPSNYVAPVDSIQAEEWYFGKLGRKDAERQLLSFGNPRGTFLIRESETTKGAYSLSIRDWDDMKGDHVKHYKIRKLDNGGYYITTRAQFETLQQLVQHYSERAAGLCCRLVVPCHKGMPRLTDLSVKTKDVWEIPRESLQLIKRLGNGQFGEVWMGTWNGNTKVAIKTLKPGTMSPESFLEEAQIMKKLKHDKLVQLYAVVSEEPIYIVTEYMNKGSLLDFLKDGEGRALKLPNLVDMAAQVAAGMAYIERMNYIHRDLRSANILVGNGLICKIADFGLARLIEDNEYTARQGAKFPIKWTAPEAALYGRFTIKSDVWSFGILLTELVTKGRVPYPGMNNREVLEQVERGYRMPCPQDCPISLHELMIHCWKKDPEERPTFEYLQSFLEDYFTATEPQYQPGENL
- Assay Details: Kinase screening assay (IC50)
pIC50: −log10 of the molar value.
compounds and their reported pIC50

Known pIC50 results, listed for orientation:
COc1cc(-c2nn(CCN3CCC(CN(C)C)CC3)c3ncnc(N)c23)ccc1NC(=O)OC(C)(C)C: 8.34
CN(C)C1CCN(CCn2nc(-c3ccc(NC(=O)OC(C)(C)C)cc3)c3c(N)ncnc32)CC1: 6.00 to 7.00

Measured pIC50 of COc1cc(-c2nn(CCN3CCC(N(C)C)CC3)c3ncnc(N)c23)ccc1Cc1ncc(C)o1 : 6.00 to 7.00

====

- Measured Target: LYN (Homo sapiens (Human), UniProt P07948)
- Sequence (P07948 whole entry): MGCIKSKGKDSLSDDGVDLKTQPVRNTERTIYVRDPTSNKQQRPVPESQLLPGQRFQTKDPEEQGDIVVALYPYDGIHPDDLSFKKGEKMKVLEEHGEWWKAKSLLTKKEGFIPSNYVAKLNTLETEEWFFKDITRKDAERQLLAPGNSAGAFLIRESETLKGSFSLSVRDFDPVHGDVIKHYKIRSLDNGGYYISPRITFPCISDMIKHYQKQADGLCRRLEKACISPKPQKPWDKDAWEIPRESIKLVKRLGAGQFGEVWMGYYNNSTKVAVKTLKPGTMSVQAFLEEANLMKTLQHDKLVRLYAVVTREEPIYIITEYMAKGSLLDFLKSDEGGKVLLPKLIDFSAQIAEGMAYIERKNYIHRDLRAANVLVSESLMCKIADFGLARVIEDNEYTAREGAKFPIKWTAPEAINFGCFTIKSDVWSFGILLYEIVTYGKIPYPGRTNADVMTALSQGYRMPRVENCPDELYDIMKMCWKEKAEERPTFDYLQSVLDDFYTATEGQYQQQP
- Assay Details: Kinase screening assay (IC50)
- Condition Info: read-out: Target inhibition (IC50) LYN; 10 μM ATP
compounds and their reported IC50

Known IC50 results, listed for orientation:
COc1cc(-c2nn(CCN3CCC(CN(C)C)CC3)c3ncnc(N)c23)ccc1NC(=O)OC(C)(C)C [Compound 503]: < 0.01 µM
COc1cc(-c2nn(CCN3CCC(N4CCCC4)CC3)c3ncnc(N)c23)ccc1NC(=O)OC(C)(C)C [Compound 518]: < 0.01 µM
Cc1ccc(-c2nn(CCN3CCC(CN(C)C)CC3)c3ncnc(N)c23)cc1 [Compound 112]: > 1 µM

--- query ---
Measured IC50 of COc1cc(-c2nn(CCN3CCC(N(C)C)CC3)c3ncnc(N)c23)ccc1CC(=O)OC(C)(C)C [Compound 565] : < 0.01 µM

meta.source: patent US10294227B2
